System: β-Hexosaminidase
TEST_PROTOCOL: inhibition of human liver β-hexosaminidase
Format: biochemical
ASSAY_CONDITIONS: 1 mM inhibitor
So basically: % Inhibition of Glycosidase Activity, β-Hexosaminidase at 30% or higher? That is label 1. Lower than 30%? That is label 0.

| MOLECULE | SUBJECT_OF_TEST | GROUP_LABEL |
| --- | --- | --- |
| NC[C@H]1O[C@H]([C@H](O)CO)[C@H](O)[C@@H]1O | β-Hexosaminidase | label 1 |
| OC[C@@H](O)[C@H]1NC[C@@H](O)[C@H]1O | β-Hexosaminidase | label 0 |
| OC[C@H]1N[C@H](CO)[C@@H](O)C(O)[C@@H]1O (some centres unmarked) | β-Hexosaminidase | label 0 |
| OC[C@H]1NC[C@@H](O)[C@@H](O)[C@@H]1O | β-Hexosaminidase | label 1 |
| OC[C@@H](O)[C@H]1N[C@H](CO)[C@@H](O)[C@H]1O | β-Hexosaminidase | label 0 |

###

SUBJECT_OF_TEST: Golgi α-Mannosidase (Homo sapiens, UniProt Q16706)
Construct: Human liver glycosidases were assayed; from tissue; host or cells: human liver
Sequence (Q16706 1-1144): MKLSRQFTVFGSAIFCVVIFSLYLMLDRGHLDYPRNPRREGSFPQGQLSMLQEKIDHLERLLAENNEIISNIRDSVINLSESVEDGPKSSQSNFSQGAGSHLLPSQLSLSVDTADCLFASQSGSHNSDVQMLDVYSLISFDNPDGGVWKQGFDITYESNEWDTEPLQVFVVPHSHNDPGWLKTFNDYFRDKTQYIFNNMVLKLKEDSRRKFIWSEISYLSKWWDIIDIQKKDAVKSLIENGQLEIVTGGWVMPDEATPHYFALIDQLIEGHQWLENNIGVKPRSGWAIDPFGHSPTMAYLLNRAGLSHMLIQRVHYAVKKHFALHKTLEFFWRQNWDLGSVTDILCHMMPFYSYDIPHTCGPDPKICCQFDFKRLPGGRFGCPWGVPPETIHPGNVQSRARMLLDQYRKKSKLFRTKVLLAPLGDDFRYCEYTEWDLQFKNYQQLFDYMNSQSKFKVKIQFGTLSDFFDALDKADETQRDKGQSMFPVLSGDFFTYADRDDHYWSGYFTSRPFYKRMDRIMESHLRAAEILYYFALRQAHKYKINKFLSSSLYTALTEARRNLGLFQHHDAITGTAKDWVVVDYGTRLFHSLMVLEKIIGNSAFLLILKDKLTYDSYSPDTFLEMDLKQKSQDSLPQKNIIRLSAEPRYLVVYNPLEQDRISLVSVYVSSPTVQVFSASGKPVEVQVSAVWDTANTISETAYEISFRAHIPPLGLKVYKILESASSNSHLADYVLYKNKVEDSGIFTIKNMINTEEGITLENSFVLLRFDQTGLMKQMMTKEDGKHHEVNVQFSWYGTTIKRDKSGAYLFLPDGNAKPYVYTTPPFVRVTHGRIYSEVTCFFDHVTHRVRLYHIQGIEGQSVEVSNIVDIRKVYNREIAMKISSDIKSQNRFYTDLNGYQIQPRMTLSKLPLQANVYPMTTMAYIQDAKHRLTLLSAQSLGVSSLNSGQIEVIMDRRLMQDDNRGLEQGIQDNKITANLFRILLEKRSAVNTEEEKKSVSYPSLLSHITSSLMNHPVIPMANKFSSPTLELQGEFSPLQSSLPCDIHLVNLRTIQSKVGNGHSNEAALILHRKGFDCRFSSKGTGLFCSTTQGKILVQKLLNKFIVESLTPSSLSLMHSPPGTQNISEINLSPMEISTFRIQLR
TEST_PROTOCOL: inhibition of human liver Golgi α-mannosidase
Format: biochemical
ASSAY_CONDITIONS: 1 mM inhibitor; read-out: % Inhibition of Glycosidase Activity, α-Mannosidase Golgi

| MOLECULE | inhibition at 1000 µM / % |
| --- | --- |
| OC[C@@H](O)[C@H]1N[C@H](CO)[C@@H](O)[C@H]1O | 92 |
| OC[C@@H](O)[C@H]1NC[C@@H](O)[C@H]1O | 96 |
| OC[C@H]1NC[C@@H](O)[C@@H](O)[C@@H]1O | 45 |
| OC[C@H]1N[C@H](CO)[C@@H](O)C(O)[C@@H]1O (stereo partly shown) | 56 |

###

SUBJECT_OF_TEST: β-Xylosidase (Homo sapiens, UniProt Q9H227)
Construct: Human liver glycosidases were assayed; from tissue; host or cells: human liver
Sequence (Q9H227 whole entry): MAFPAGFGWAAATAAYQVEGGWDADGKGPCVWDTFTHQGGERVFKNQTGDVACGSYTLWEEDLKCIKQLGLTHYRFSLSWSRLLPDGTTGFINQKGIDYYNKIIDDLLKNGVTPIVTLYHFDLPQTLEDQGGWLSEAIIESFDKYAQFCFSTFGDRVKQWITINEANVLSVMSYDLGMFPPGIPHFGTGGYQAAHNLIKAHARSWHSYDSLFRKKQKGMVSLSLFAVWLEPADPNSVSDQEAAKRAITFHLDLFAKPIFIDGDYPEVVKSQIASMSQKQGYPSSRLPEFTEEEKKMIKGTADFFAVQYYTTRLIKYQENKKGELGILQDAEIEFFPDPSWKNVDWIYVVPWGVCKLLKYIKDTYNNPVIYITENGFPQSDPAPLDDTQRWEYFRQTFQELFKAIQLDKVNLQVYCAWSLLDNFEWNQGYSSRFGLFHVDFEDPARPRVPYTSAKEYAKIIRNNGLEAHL
TEST_PROTOCOL: inhibition of human liver β-xylosidase
Format: biochemical
ASSAY_CONDITIONS: 1 mM inhibitor; read-out: % Inhibition of Glycosidase Activity, β-Xylosidase

| MOLECULE | inhibition at 1000 µM [%] |
| --- | --- |
| OC[C@H]1NC[C@@H](O)[C@@H](O)[C@@H]1O | 3 |
| OC[C@@H](O)[C@H]1N[C@H](CO)[C@@H](O)[C@H]1O | 21 |
| OC[C@H]1N[C@H](CO)[C@@H](O)C(O)[C@@H]1O (some centres unmarked) | 0 |
| NC[C@H]1O[C@H]([C@H](O)CO)[C@H](O)[C@@H]1O | 6 |
| OC[C@@H](O)[C@H]1NC[C@@H](O)[C@H]1O | 45 |

###

Test system: α-Arabinosidase
TEST_PROTOCOL: inhibition of human liver α-arabinosidase
Format: biochemical
ASSAY_CONDITIONS: 1 mM inhibitor
% Inhibition of Glycosidase Activity, α-Arabinosidase reference
OBSERVED_PROPERTY: % Inhibition of Glycosidase Activity, α-Arabinosidase (%)

| MOLECULE | TEST_RESULT |
| --- | --- |
| OC[C@H]1N[C@H](CO)[C@@H](O)C(O)[C@@H]1O (some centres unmarked) [αHomoDMJ (2)] | 0 |
| NC[C@H]1O[C@H]([C@H](O)CO)[C@H](O)[C@@H]1O [Manhepamine (5)] | 0 |
| OC[C@@H](O)[C@H]1NC[C@@H](O)[C@H]1O [DIM (3)] | 66 |
| OC[C@@H](O)[C@H]1N[C@H](CO)[C@@H](O)[C@H]1O [αHomoDIM (4)] | 25 |
| OC[C@H]1NC[C@@H](O)[C@@H](O)[C@@H]1O [DMJ (1), deoxymannojirimycin] | 5 |

###

SUBJECT_OF_TEST: Lysosomal α-Mannosidase (Homo sapiens, UniProt O00754)
Construct: Human liver glycosidases were assayed; from tissue; host or cells: human liver
Sequence (O00754 50-1011): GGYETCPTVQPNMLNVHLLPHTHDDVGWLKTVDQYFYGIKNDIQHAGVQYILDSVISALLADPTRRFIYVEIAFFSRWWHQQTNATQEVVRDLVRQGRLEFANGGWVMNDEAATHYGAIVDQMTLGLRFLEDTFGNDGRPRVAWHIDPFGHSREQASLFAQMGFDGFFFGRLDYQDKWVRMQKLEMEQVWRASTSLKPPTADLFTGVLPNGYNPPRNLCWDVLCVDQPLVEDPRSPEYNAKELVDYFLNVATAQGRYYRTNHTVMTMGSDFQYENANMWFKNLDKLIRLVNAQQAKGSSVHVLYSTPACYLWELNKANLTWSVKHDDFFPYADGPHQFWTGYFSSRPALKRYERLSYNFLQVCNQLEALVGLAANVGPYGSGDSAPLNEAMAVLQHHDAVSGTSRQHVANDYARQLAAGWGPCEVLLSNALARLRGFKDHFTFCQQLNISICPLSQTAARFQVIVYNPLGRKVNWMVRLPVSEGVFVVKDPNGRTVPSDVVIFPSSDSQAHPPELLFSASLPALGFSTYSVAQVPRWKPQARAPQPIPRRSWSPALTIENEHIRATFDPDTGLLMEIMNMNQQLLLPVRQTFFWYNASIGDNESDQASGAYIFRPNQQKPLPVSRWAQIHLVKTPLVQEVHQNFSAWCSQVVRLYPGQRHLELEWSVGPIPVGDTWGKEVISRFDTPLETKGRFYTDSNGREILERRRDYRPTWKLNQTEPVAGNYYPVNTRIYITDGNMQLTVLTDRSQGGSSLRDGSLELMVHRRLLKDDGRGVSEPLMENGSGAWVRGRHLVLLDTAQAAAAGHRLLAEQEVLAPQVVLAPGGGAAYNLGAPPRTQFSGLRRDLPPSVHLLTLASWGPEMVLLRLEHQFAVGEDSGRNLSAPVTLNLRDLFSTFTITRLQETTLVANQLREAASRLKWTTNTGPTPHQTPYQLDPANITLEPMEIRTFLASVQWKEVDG
TEST_PROTOCOL: inhibition of human liver lysosomal α-mannosidase
Assay type: biochemical
ASSAY_CONDITIONS: 1 mM inhibitor; read-out: % Inhibition of Glycosidase Activity, α-Mannosidase Lysosomal
Each entry below lists one item and its recorded inhibition at 1000 µM value.

| MOLECULE | inhibition at 1000 µM, % |
| --- | --- |
| OC[C@@H](O)[C@H]1NC[C@@H](O)[C@H]1O [DIM (3)] | 97 |
| OC[C@H]1N[C@H](CO)[C@@H](O)C(O)[C@@H]1O (some centres unmarked) [αHomoDMJ (2)] | 49 |
| OC[C@@H](O)[C@H]1N[C@H](CO)[C@@H](O)[C@H]1O [αHomoDIM (4)] | 71 |
| NC[C@H]1O[C@H]([C@H](O)CO)[C@H](O)[C@@H]1O [Manhepamine (5)] | 2 |
| OC[C@H]1NC[C@@H](O)[C@@H](O)[C@@H]1O [DMJ (1), deoxymannojirimycin] | 58 |

###

inhibition at 1000 µM values by entry
SUBJECT_OF_TEST: Neutral α-Mannosidase (Homo sapiens, UniProt Q9NTJ4)
Construct: Human liver glycosidases were assayed; from tissue; host or cells: human liver
Sequence (Q9NTJ4 1-1040): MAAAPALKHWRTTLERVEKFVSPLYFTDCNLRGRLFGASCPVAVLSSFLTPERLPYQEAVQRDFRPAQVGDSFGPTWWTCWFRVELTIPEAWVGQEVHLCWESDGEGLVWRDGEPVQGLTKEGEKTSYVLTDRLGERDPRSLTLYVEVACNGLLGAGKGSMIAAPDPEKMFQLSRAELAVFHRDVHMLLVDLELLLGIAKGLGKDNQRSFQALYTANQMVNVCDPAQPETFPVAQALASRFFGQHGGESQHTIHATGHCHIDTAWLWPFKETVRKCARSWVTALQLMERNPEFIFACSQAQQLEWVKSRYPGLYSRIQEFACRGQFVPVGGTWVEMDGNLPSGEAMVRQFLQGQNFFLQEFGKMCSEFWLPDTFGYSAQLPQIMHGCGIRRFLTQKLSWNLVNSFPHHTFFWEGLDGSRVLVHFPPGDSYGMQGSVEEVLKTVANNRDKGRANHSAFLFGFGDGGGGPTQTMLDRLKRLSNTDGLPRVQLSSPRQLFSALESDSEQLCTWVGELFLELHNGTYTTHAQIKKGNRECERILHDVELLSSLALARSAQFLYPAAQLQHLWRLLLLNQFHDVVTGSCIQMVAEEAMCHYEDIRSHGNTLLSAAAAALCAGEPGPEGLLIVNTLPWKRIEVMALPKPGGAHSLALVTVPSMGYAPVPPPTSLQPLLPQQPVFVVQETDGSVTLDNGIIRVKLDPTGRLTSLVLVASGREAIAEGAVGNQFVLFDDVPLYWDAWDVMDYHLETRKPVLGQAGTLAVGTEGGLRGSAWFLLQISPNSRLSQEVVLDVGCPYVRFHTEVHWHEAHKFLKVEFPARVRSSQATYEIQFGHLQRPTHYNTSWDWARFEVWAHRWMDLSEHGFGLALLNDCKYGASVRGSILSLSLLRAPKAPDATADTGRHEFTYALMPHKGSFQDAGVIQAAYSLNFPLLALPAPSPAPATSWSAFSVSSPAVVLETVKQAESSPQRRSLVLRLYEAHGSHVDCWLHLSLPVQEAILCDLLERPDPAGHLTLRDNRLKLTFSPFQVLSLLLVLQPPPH
TEST_PROTOCOL: inhibition of human liver neutral α-mannosidase
Type: biochemical
ASSAY_CONDITIONS: 1 mM inhibitor; read-out: % Inhibition of Glycosidase Activity, α-Mannosidase Neutral

| COMPOUND | UNIT_INFO | inhibition at 1000 µM |
| --- | --- | --- |
| NC[C@H]1O[C@H]([C@H](O)CO)[C@H](O)[C@@H]1O [Manhepamine (5)] | % | 2 |
| OC[C@@H](O)[C@H]1NC[C@@H](O)[C@H]1O [DIM (3)] | % | 89 |
| OC[C@H]1NC[C@@H](O)[C@@H](O)[C@@H]1O [DMJ (1), deoxymannojirimycin] | % | 30 |
| OC[C@@H](O)[C@H]1N[C@H](CO)[C@@H](O)[C@H]1O [αHomoDIM (4)] | % | 76 |
| OC[C@H]1N[C@H](CO)[C@@H](O)C(O)[C@@H]1O (some centres unmarked) [αHomoDMJ (2)] | % | 33 |
